The reported measurements were obtained from patent US20260209260A1.

test_description: Luminescence emission spectra and quantum yield
Assay type: physicochemical
setup_conditions: CH2Cl2, room temperature, λexc 365 nm or 470 nm
quantity_kind: λem (nm)
The answer is to be given in nm; state only the numeric part.

If you can, please state the reported λem value of F[P-](F)(F)(F)(F)F.O=C(O)CC[C@H](NC(=O)N[C@@H](CCCCNC(=O)CCn1cc[n+]2[c]1[Ir-3]13([c]4ccccc4-c4c5ccccc5cc[n+]41)([c]1ccccc1-c1c4ccccc4cc[n+]13)[n+]1ccccc1-2)C(=O)O)C(=O)O [III-h] . 628

If you can, please state the reported λem value of COC(=O)c1cccc2[c]1[Ir-3]13([c]4c(C(=O)OC)cccc4-c4cccc[n+]41)([c]1n(CCC(=O)NCCCC[C@H](NC(=O)N[C@@H](CCC(=O)O)C(=O)O)C(=O)O)cc[n+]1-c1cccc[n+]13)[n+]1ccccc1-2.F[P-](F)(F)(F)(F)F [III-d] . 498

If you can, please state the reported λem value of COC(=O)c1ccc2[n+](c1)[Ir-3]13([c]4ccccc4-2)([c]2ccccc2-c2ccc(C(=O)OC)c[n+]21)[c]1n(CCCNC(=O)[c-]2cccc2)cc[n+]1-c1cccc[n+]13.F[P-](F)(F)(F)(F)F.[Fe+2].c1cc[cH-]c1 [IV-e] . 528

If you can, please state the reported λem value of F[P-](F)(F)(F)(F)F.O=C(O)CC[C@H](NC(=O)N[C@@H](CCCCNC(=O)CCn1cc[n+]2[c]1[Ir-3]13([c]4cccc5ccc6ccc[n+]1c6c45)([c]1cccc4ccc5ccc[n+]3c5c14)[n+]1ccccc1-2)C(=O)O)C(=O)O [III-i] . 548

====

System: T24 bladder cancer cells
test_description: Cell viability assay (MTT), dark and blue light
Format: cell-based, Human
setup_conditions: dark vs blue light 458 nm
quantity_kind: Photosensitizing index (PI) T24

If you can, please state the reported Photosensitizing index (PI) T24 value of COC(=O)c1cccc2[c]1[Ir-3]13([c]4c(C(=O)OC)cccc4-c4cccc[n+]41)([c]1n(CCCNC(=O)CCCC[C@@H]4SC[C@@H]5NC(=O)N[C@@H]54)cc[n+]1-c1cccc[n+]13)[n+]1ccccc1-2.F[P-](F)(F)(F)(F)F . 1.0

If you can, please state the reported Photosensitizing index (PI) T24 value of F[P-](F)(F)(F)(F)F.O=C(CCCC[C@@H]1SC[C@@H]2NC(=O)N[C@@H]21)NCCCn1cc[n+]2[c]1[Ir-3]13([c]4cccc5ccc6ccc[n+]1c6c45)([c]1cccc4ccc5ccc[n+]3c5c14)[n+]1ccccc1-2 . 1.4

If you can, please state the reported Photosensitizing index (PI) T24 value of CC(C)=CCC/C(C)=C/CC/C(C)=C/CSc1ccccc1C(=O)NCCCn1cc[n+]2[c]1[Ir-3]13([c]4ccccc4-c4ccc5ccccc5[n+]41)([c]1ccccc1-c1ccc4ccccc4[n+]13)[n+]1ccccc1-2.F[P-](F)(F)(F)(F)F . 0.7

If you can, please state the reported Photosensitizing index (PI) T24 value of F[P-](F)(F)(F)(F)F.O=C(CCCC[C@@H]1SC[C@@H]2NC(=O)N[C@@H]21)NCCCn1cc[n+]2[c]1[Ir-3]13([c]4ccccc4-c4ccc5ccccc5[n+]41)([c]1ccccc1-c1ccc4ccccc4[n+]13)[n+]1ccccc1-2 . 16.9
